# Species: Rattus norvegicus
# testName: Neurogenic activity in Wistar rat Primary neural stem cells assessed as cell maturation by measuring TuJ1 at 10 uM after 48 hrs by DAPI staining-based immunohistochemistry
# Type: functional
The source made the active and inactive calls. The calls are words filed in the database; no cut-off is given here.
Choose the fitting class; nothing outside active, inactive is accepted.

>>> df
                             chemicalstring     label
0             COc1ccc2[nH]cc(CCNC(C)=O)c2c1    active
1      CC(=O)NCCc1c(Cc2ccccc2)[nH]c2ccccc12  inactive
2  COc1cccc(CN(C)Cc2ccc(C(=O)NCCc3c[nH]c4ccc(OC)cc34)cc2)c1    active
3  COc1ccccc1CN(C)Cc1ccc(C(=O)NCCc2c[nH]c3ccccc23)cc1    active

Dear colleague, could you share the recorded outcome for COc1ccc2[nH]cc(CCNC(=O)c3ccc(CN(C)Cc4ccccc4)cc3)c2c1 when you have a moment?
active

###

Reported pIC50 values for a set of compounds
# measuredOn: Acetylcholinesterase (Homo sapiens, UniProt P22303)
# Sequence (P22303 whole entry): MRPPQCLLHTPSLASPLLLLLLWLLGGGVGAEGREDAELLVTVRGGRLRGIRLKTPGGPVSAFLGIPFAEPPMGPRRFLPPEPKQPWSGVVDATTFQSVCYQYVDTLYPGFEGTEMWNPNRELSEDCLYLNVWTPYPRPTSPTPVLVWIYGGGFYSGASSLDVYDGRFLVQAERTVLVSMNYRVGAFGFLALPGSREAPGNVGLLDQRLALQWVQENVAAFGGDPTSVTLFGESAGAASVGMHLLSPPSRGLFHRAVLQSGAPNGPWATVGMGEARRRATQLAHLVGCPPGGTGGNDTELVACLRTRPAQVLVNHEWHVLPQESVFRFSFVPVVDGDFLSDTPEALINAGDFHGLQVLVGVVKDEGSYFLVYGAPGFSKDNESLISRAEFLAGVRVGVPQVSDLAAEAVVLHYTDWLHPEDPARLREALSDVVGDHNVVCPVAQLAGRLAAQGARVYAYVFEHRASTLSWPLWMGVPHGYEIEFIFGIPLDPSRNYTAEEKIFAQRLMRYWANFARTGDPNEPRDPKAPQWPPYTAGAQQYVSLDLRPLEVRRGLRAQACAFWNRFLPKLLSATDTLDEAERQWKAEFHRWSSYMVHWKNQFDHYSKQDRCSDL
// scale note: pIC50 = -log10(conc_M); give the bare number

Some solved cases for reference:
>>> df
                             chemicalstring  readoutname  recordedvalue
0  CN(Cc1ccccc1)Cc1ccc(C(=O)NCCc2c[nH]c3cc(F)ccc23)cc1        pIC50           5.60
1  COc1ccc2c(CCNC(=O)c3ccc(CN(C)Cc4cccc(Cl)c4)cc3)c[nH]c2c1        pIC50           5.68
2  COc1cccc(CN(C)Cc2ccc(C(=O)NCCc3c[nH]c4ccccc34)cc2)c1        pIC50           5.42
3  COc1ccc2c(CCNC(=O)c3ccc(CN(C)Cc4ccccc4)cc3)c[nH]c2c1        pIC50           5.39
4  COc1cccc(CN(C)Cc2ccc(C(=O)NCCc3c[nH]c4ccc(OC)cc34)cc2)c1        pIC50           5.17

Please report pIC50 with Acetylcholinesterase (Homo sapiens, UniProt P22303) for item CN(Cc1ccccc1)Cc1ccc(C(=O)NCCc2c[nH]c3ccc(O)cc23)cc1 .
5.38

With Acetylcholinesterase (Homo sapiens, UniProt P22303) as the test system, provide measured pIC50 for this compound: COc1ccc2[nH]cc(CCNC(=O)c3ccc(CN(C)Cc4ccccc4OC)cc3)c2c1
5.27

Please tell me the measured pIC50 for COc1ccccc1CN(C)Cc1ccc(C(=O)NCCc2c[nH]c3ccccc23)cc1 ; system: Acetylcholinesterase (Homo sapiens, UniProt P22303).
5.33

Look up and report pIC50, with Acetylcholinesterase (Homo sapiens, UniProt P22303) as system, for CN(Cc1ccc(C(=O)NCCc2c[nH]c3ccccc23)cc1)Cc1cccc(Cl)c1
5.29

Recall the reported pIC50 of COc1ccc2[nH]cc(CCNC(=O)c3ccc(CN(C)Cc4cccc(Cl)c4)cc3)c2c1 on Acetylcholinesterase (Homo sapiens, UniProt P22303) and write it down.
5.25

###

Reported inhibition values for the following compounds.
# Organism: Homo sapiens
# testName: Inhibition of human BuChE using butyrylthiocholine as substrate at 10 uM incubated for 5 mins prior to substrate addition measured after 5 mins by Ellman method
Please state the figure in %; there is no need to write the unit.

The examples below pair each entry with its known result.
>>> print(df.to_string())
                             chemicalstring  unittext  recordedvalue
0  COc1ccc2[nH]cc(CCNC(=O)c3ccc(CN(C)Cc4cccc(Cl)c4)cc3)c2c1         %             38
1  COc1ccc2[nH]cc(CCNC(=O)c3ccc(CN(C)Cc4ccccc4Cl)cc3)c2c1         %             37
2  COc1ccc2[nH]cc(CCNC(=O)c3ccc(CN(C)Cc4ccccc4OC)cc3)c2c1         %             47
3  CN(Cc1ccc(C(=O)NCCc2c[nH]c3ccccc23)cc1)Cc1ccccc1Cl         %             38
4  COc1cccc(CN(C)Cc2ccc(C(=O)NCCc3c[nH]c4ccc(OC)cc34)cc2)c1         %             45
5  COc1ccc2c(CCNC(=O)c3ccc(CN(C)Cc4cccc(Cl)c4)cc3)c[nH]c2c1         %             22

For the next question, use this compound.
For CN(Cc1ccc(C(=O)NCCc2c[nH]c3ccccc23)cc1)Cc1cccc(Cl)c1 , write its inhibition.
38
